Just for reference, ChEMBL document CHEMBL2150986 is where these values come from.

Tested on: HCT-116
Assay: cells
Details: Homo sapiens, HCT-116, 72 h
pIC50: −log10 of the molar value.
EXPERIMENTAL READOUT: pIC50

>>> numeric_result("COc1cccc2c1CCC(=O)/C2=C/c1ccccc1Cl")
5.24
>>> numeric_result("COc1ccc2c(c1)CCC(=O)/C2=C/c1cccc(O)c1")
5.75
>>> numeric_result("COc1ccc(/C=C2/C(=O)CCc3c(OC)cccc32)cc1OC")
5.67
>>> numeric_result("COc1ccc2c(c1)CCC(=O)/C2=C/c1ccc(Cl)cc1Cl")
5.67

====

System: CCRF-CEM
Experiment: Cytotoxicity against human CEM cells after 72 hrs by MTT assay
Type: functional, cell-based
// map IC50 onto a label; ranges bucket 1: < 1000 nM; bucket 2: ≥ 1000 nM and < 4000 nM; bucket 3: ≥ 4000 nM

>>> assigned_category("COc1ccc2c(c1)CCC(=O)/C2=C/c1ccc(N(C)C)cc1")
"bucket 3"
>>> assigned_category("COc1ccc2c(c1)/C(=C\\c1ccc(OC)c(OC)c1)C(=O)CC2")
"bucket 1"
>>> assigned_category("COc1cccc2c1CCC(=O)/C2=C/c1ccc(O)cc1")
"bucket 3"
>>> assigned_category("COc1cccc2c1CCC(=O)/C2=C/c1cc(OC)c(OC)c(OC)c1")
"bucket 2"
>>> assigned_category("COc1cccc2c1CCC(=O)/C2=C/c1ccc(Cl)cc1Cl")
"bucket 3"
>>> assigned_category("COc1cc(/C=C2/C(=O)CCc3ccc(OC)cc32)cc(OC)c1")
"bucket 1"
>>> assigned_category("COc1ccc2c(c1)/C(=C\\c1ccc(OC)c(OC)c1OC)C(=O)CC2")
"bucket 3"
>>> assigned_category("COc1ccc(/C=C2/C(=O)CCc3c(OC)cccc32)cc1OC")
"bucket 2"
>>> assigned_category("COc1ccc2c(c1)/C(=C\\c1ccc(Br)cc1)C(=O)CC2")
"bucket 3"
>>> assigned_category("COc1cc(/C=C2/C(=O)CCc3cc(OC)ccc32)cc(OC)c1")
"bucket 1"
>>> assigned_category("COc1ccc2c(c1)CCC(=O)/C2=C/c1ccc([N+](=O)[O-])cc1")
"bucket 1"
>>> assigned_category("COc1cccc2c1CCC(=O)/C2=C/c1ccccc1")
"bucket 3"
>>> assigned_category("COc1cccc2c1CCC(=O)/C2=C/c1ccc(N(C)C)cc1")
"bucket 3"
>>> assigned_category("COc1ccc(/C=C2/C(=O)CCc3c(OC)cccc32)cc1")
"bucket 2"
>>> assigned_category("COc1ccc2c(c1)/C(=C\\c1ccc(O)cc1)C(=O)CC2")
"bucket 2"
>>> assigned_category("COc1ccc2c(c1)/C(=C\\c1ccccc1Cl)C(=O)CC2")
"bucket 3"

====

Tested on: CCRF-CEM
Assay: Cytotoxicity against human CEM cells after 72 hrs by MTT assay
Type: functional, cell-based
EXPERIMENTAL READOUT: IC50 (µM)

>>> numeric_result("COc1ccc2c(c1)/C(=C\\c1ccc(O)c(OC)c1)C(=O)CC2")
6.93
>>> numeric_result("COc1ccc2c(c1)CCC(=O)/C2=C/c1ccc(OC)c(O)c1")
0.12
>>> numeric_result("COc1cccc2c1CCC(=O)/C2=C/c1c(Cl)cccc1Cl")
8.64
>>> numeric_result("COc1ccc2c(c1)/C(=C\\c1ccccc1)C(=O)CC2")
1.53

====

Target: Tubulin (Sus scrofa, UniProt P02554+P02550)
Assay: Inhibition of porcine brain tubulin assembly measured every 1 min for 60 mins by turbidimetric analysis
EXPERIMENTAL READOUT: IC50 (µM)

>>> numeric_result("COc1cccc2c1CCC(=O)/C2=C/c1cc(OC)c(OC)c(OC)c1")
18.68
>>> numeric_result("COc1ccc2c(c1)CCC(=O)/C2=C/c1cc(OC)c(OC)c(OC)c1")
3.93
>>> numeric_result("COc1cc(/C=C2/C(=O)CCc3cc(OC)ccc32)cc(OC)c1")
6.88
>>> numeric_result("COc1ccc(/C=C2/C(=O)CCc3cc(OC)ccc32)cc1")
25.82
>>> numeric_result("COc1ccc2c(c1)CCC(=O)/C2=C/c1ccc(OC)c(OC)c1OC")
25.78
>>> numeric_result("COc1ccc2c(c1)/C(=C\\c1cc(OC)c(OC)c(OC)c1)C(=O)CC2")
9.63
>>> numeric_result("COc1ccc2c(c1)CCC(=O)/C2=C/c1ccc(OC)c(OC)c1")
6.42

====

Test system: CCRF-CEM
Assay: Cytotoxicity against human CEM cells after 72 hrs by MTT assay
Assay type: functional, cell-based
pIC50: −log10 of the molar value.
EXPERIMENTAL READOUT: pIC50

>>> numeric_result("COc1ccc2c(c1)CCC(=O)/C2=C/c1ccc(OC)c(OC)c1OC")
6.07
>>> numeric_result("COc1ccc2c(c1)CCC(=O)/C2=C/c1ccc(OC)c(OC)c1")
7.14
>>> numeric_result("COc1ccc(/C=C2/C(=O)CCc3c(OC)cccc32)cc1O")
5.20
>>> numeric_result("COc1ccc2c(c1)CCC(=O)/C2=C/c1ccc(Cl)cc1")
6.02

====

Tested on: MDA-MB-435
Assay: cells
Settings: Homo sapiens, MDA-MB-435, 72 h
Description: Cytotoxicity against human MDA-MB-435 cells after 72 hrs by MTT assay
Category key, based on recorded IC50: lower level (below 1000 nM), middle level (1000 nM to below 6000 nM), upper level (6000 nM or more)

>>> assigned_category("COc1ccc2c(c1)/C(=C\\c1ccc(C(C)(C)C)cc1)C(=O)CC2")
"upper level"
>>> assigned_category("COc1cccc2c1CCC(=O)/C2=C/c1ccc(C(C)(C)C)cc1")
"upper level"
>>> assigned_category("COc1ccc2c(c1)/C(=C\\c1ccc([N+](=O)[O-])cc1)C(=O)CC2")
"upper level"
>>> assigned_category("COc1cccc2c1CCC(=O)/C2=C/c1ccccc1")
"upper level"
>>> assigned_category("COc1ccc2c(c1)/C(=C\\c1ccc(C)cc1)C(=O)CC2")
"middle level"
>>> assigned_category("COc1ccc2c(c1)CCC(=O)/C2=C/c1ccccc1Cl")
"lower level"
>>> assigned_category("COc1ccc(/C=C\\c2cc(OC)c(OC)c(OC)c2)cc1O")
"lower level"
>>> assigned_category("COc1ccc2c(c1)CCC(=O)/C2=C/c1ccccc1")
"lower level"
>>> assigned_category("COc1ccc2c(c1)/C(=C\\c1ccccc1Cl)C(=O)CC2")
"middle level"
>>> assigned_category("COc1ccc2c(c1)/C(=C\\c1ccc(O)cc1)C(=O)CC2")
"lower level"
>>> assigned_category("COc1cccc2c1CCC(=O)/C2=C/c1ccc(Cl)cc1Cl")
"upper level"
>>> assigned_category("COc1cccc2c1CCC(=O)/C2=C/c1ccc(O)cc1")
"middle level"
>>> assigned_category("COc1cccc2c1CCC(=O)/C2=C/c1ccc(Br)cc1")
"upper level"
>>> assigned_category("COc1cccc2c1CCC(=O)/C2=C/c1ccc(C)cc1")
"upper level"
>>> assigned_category("COc1cc(/C=C2/C(=O)CCc3c(OC)cccc32)cc(OC)c1")
"middle level"
>>> assigned_category("COc1ccc2c(c1)CCC(=O)/C2=C/c1ccc(Cl)cc1")
"lower level"
>>> assigned_category("COc1ccc2c(c1)CCC(=O)/C2=C/c1ccc(Br)cc1")
"middle level"
>>> assigned_category("COc1ccc2c(c1)CCC(=O)/C2=C/c1ccc([N+](=O)[O-])cc1")
"lower level"
>>> assigned_category("COc1ccc2c(c1)CCC(=O)/C2=C/c1ccc(C)cc1")
"middle level"
>>> assigned_category("COc1ccc2c(c1)CCC(=O)/C2=C/c1ccc(O)cc1")
"lower level"
>>> assigned_category("COc1cccc2c1CCC(=O)/C2=C/c1ccc(N(C)C)cc1")
"upper level"
>>> assigned_category("COc1ccc2c(c1)/C(=C\\c1ccccc1)C(=O)CC2")
"middle level"
>>> assigned_category("COc1ccc2c(c1)/C(=C\\c1ccc(OC)c(OC)c1OC)C(=O)CC2")
"middle level"
>>> assigned_category("COc1ccc2c(c1)CCC(=O)/C2=C/c1ccc(N(C)C)cc1")
"middle level"
>>> assigned_category("COc1ccc2c(c1)/C(=C\\c1ccc(Cl)c(Cl)c1)C(=O)CC2")
"upper level"
>>> assigned_category("COc1cc(/C=C2/C(=O)CCc3cc(OC)ccc32)cc(OC)c1")
"lower level"
>>> assigned_category("COc1cccc2c1CCC(=O)/C2=C/c1ccc(Cl)c(Cl)c1")
"upper level"
>>> assigned_category("COc1ccc(/C=C2/C(=O)CCc3cc(OC)ccc32)cc1")
"lower level"
>>> assigned_category("COc1ccc2c(c1)CCC(=O)/C2=C/c1ccc(O)c(OC)c1")
"middle level"
>>> assigned_category("COc1cc(/C=C2/C(=O)CCc3c(OC)cccc32)ccc1O")
"upper level"
>>> assigned_category("COc1cccc2c1CCC(=O)/C2=C/c1ccc(OC)c(OC)c1OC")
"upper level"
>>> assigned_category("COc1ccc2c(c1)/C(=C\\c1ccc(C(F)(F)F)cc1)C(=O)CC2")
"upper level"
>>> assigned_category("COc1cccc2c1CCC(=O)/C2=C/c1ccc(Cl)cc1")
"upper level"
>>> assigned_category("COc1ccc2c(c1)CCC(=O)/C2=C/c1cc(OC)c(OC)c(OC)c1")
"lower level"
>>> assigned_category("COc1ccc(/C=C2/C(=O)CCc3c(OC)cccc32)cc1O")
"middle level"
>>> assigned_category("COc1ccc(/C=C2/C(=O)CCc3c(OC)cccc32)cc1")
"middle level"
